# Method notes: CHIR PK experiment with LC-MS/MS
# Type: in vivo, mouse
# Experimental context: both, C57BL/6J, mouse, retina, ip, 25 mg/kg
Property label: concentration at 360 min (ng/g)
Entry rule: numbers only, all in ng/g.

Lookup: What does the record list as concentration at 360 min for Cc1c[nH]c(-c2cnc(NCCNc3ccc(C#N)cn3)nc2-c2ccc(Cl)cc2Cl)n1 [CHIR99021] ?
Found: 148

----------
# Method notes: CHIR PK experiment with LC-MS/MS
# Format: in vivo, mouse
# Experimental context: both, C57BL/6J, mouse, plasma, ip, 25 mg/kg
Property label: AUC(0-t) (ng·h/mL)
Entry rule: numbers only, all in ng·h/mL.

Lookup: What does the record list as AUC(0-t) for `Cc1c[nH]c(-c2cnc(NCCNc3ccc(C#N)cn3)nc2-c2ccc(Cl)cc2Cl)n1` ?
Found: 15500

----------
# Method notes: CHIR PK experiment with LC-MS/MS
# Type: in vivo, mouse
# Experimental context: both, C57BL/6J, mouse, retina, ip, 25 mg/kg
Property label: concentration at 180 min (ng/g)
Entry rule: numbers only, all in ng/g.

Lookup: What does the record list as concentration at 180 min for `Cc1c[nH]c(-c2cnc(NCCNc3ccc(C#N)cn3)nc2-c2ccc(Cl)cc2Cl)n1` ?
Found: 434

----------
# Method notes: CHIR PK experiment with LC-MS/MS
# Type: in vivo, mouse
# Experimental context: both, C57BL/6J, mouse, liver, ip, 25 mg/kg
Property label: concentration at 30 min (ng/g)
Entry rule: numbers only, all in ng/g.

Lookup: What does the record list as concentration at 30 min for Cc1c[nH]c(-c2cnc(NCCNc3ccc(C#N)cn3)nc2-c2ccc(Cl)cc2Cl)n1 [CHIR99021] ?
Found: 33300

----------
# Method notes: CHIR PK experiment with LC-MS/MS
# Assay type: in vivo, mouse
# Experimental context: both, C57BL/6J, mouse, plasma, ip, 25 mg/kg
Property label: concentration at 360 min (ng/mL)
Entry rule: numbers only, all in ng/mL.

Lookup: What does the record list as concentration at 360 min for `Cc1c[nH]c(-c2cnc(NCCNc3ccc(C#N)cn3)nc2-c2ccc(Cl)cc2Cl)n1` ?
Found: 41

----------
# Method notes: CHIR PK experiment with LC-MS/MS
# Type: in vivo, mouse
# Experimental context: both, C57BL/6J, mouse, plasma, ip, 25 mg/kg
Property label: Tmax
Number first, unit second.

Lookup: What does the record list as Tmax for `Cc1c[nH]c(-c2cnc(NCCNc3ccc(C#N)cn3)nc2-c2ccc(Cl)cc2Cl)n1` ?
Found: 30 min

----------
# Method notes: CHIR PK experiment with LC-MS/MS
# Type: in vivo, mouse
# Experimental context: both, C57BL/6J, mouse, retina, ip, 25 mg/kg
Property label: half-life (h)
Entry rule: numbers only, all in h.

Lookup: What does the record list as half-life for `Cc1c[nH]c(-c2cnc(NCCNc3ccc(C#N)cn3)nc2-c2ccc(Cl)cc2Cl)n1` ?
Found: 6.75

----------
# Method notes: CHIR PK experiment with LC-MS/MS
# Assay type: in vivo, mouse
# Experimental context: both, C57BL/6J, mouse, retina, ip, 25 mg/kg, MRT, 25 mpk IP
Property label: MRT (h)
Entry rule: numbers only, all in h.

Lookup: What does the record list as MRT for `Cc1c[nH]c(-c2cnc(NCCNc3ccc(C#N)cn3)nc2-c2ccc(Cl)cc2Cl)n1` ?
Found: 6.05

----------
# Method notes: CHIR PK experiment with LC-MS/MS
# Format: in vivo, mouse
# Experimental context: both, C57BL/6J, mouse, retina, ip, 25 mg/kg
Property label: concentration at 1440 min (ng/g)
Entry rule: numbers only, all in ng/g.

Lookup: What does the record list as concentration at 1440 min for `Cc1c[nH]c(-c2cnc(NCCNc3ccc(C#N)cn3)nc2-c2ccc(Cl)cc2Cl)n1` ?
Found: 61

----------
# Method notes: CHIR PK experiment with LC-MS/MS
# Format: in vivo, mouse
# Experimental context: both, C57BL/6J, mouse, plasma, ip, 25 mg/kg
Property label: concentration at 180 min

Lookup: What does the record list as concentration at 180 min for `Cc1c[nH]c(-c2cnc(NCCNc3ccc(C#N)cn3)nc2-c2ccc(Cl)cc2Cl)n1` ?
Found: 490 ng/mL

----------
# Method notes: CHIR PK experiment with LC-MS/MS
# Format: in vivo, mouse
# Experimental context: both, C57BL/6J, mouse, liver, ip, 25 mg/kg
Property label: concentration at 360 min (ng/g)
Entry rule: numbers only, all in ng/g.

Lookup: What does the record list as concentration at 360 min for `Cc1c[nH]c(-c2cnc(NCCNc3ccc(C#N)cn3)nc2-c2ccc(Cl)cc2Cl)n1` ?
Found: 1160

----------
# Method notes: CHIR PK experiment with LC-MS/MS
# Assay type: in vivo, mouse
# Experimental context: both, C57BL/6J, mouse, eye, ip, 25 mg/kg
Property label: concentration at 3 h

Lookup: What does the record list as concentration at 3 h for Cc1c[nH]c(-c2cnc(NCCNc3ccc(C#N)cn3)nc2-c2ccc(Cl)cc2Cl)n1 [CHIR99021] ?
Found: ~1100 nM

----------
# Method notes: CHIR PK experiment with LC-MS/MS
# Format: in vivo, mouse
# Experimental context: both, C57BL/6J, mouse, retina, ip, 25 mg/kg
Property label: concentration at 960 min (ng/g)
Entry rule: numbers only, all in ng/g.

Lookup: What does the record list as concentration at 960 min for Cc1c[nH]c(-c2cnc(NCCNc3ccc(C#N)cn3)nc2-c2ccc(Cl)cc2Cl)n1 [CHIR99021] ?
Found: 41
